koff by entry:
target: T1, cynomolgus monkey serum albumin (cynomolgus monkey, UniProt A2V9Z4 25-608); test: SPR (Biacore 8K), albumin immobilized on CM5 chip, 25 C, 1:1 kinetic fit
T1 construct: Bought protein, immobilized on a CM5 chip by amine coupling; also called Cyno SA
The answer is to be given in s⁻¹; state only the numeric part.

RLN Analog 4 (other, Single-chain fusion: VHH - (PGPQ)8 L1 - RLN2 B chain (desB1) - L2 - RLN2 A chain) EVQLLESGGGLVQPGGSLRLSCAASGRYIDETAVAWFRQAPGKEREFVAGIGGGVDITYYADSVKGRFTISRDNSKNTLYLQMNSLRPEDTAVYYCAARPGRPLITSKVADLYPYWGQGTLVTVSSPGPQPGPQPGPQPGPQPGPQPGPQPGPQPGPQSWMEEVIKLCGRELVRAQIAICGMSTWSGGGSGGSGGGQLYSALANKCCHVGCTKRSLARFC	0.00053

Kindly review the next binder as well.
**Query** What value of koff has been recorded for this entry: RLN Analog 5 (other, Single-chain fusion: RLN2 B chain (desB1) - L2 - RLN2 A chain - (G4Q)5 L1 - VHH (C-terminal)) SWMEEVIKLCGRELVRAQIAICGMSTWSGGGSGGSGGGQLYSALANKCCHVGCTKRSLARFCGGGGQGGGGQGGGGQGGGGQGGGGQEVQLLESGGGLVQPGGSLRLSCAASGRYIDETAVAWFRQAPGKEREFVAGIGGGVDITYYADSVKGRFTISRDNSKNTLYLQMNSLRPEDTAVYYCAARPGRPLITSKVADLYPYWGQGTLVTVSSPP
**Result** 0.0015
